# Test system: Enterococcus faecium
# method: Antibacterial activity against Enterococcus faecium 135562 (35C) assessed as inhibition of visible growth after 24 hrs by broth microdilution method
# Format: functional
Entries whose MIC is below 60 µg/mL take Fulfilled; entries at or above 60 µg/mL take Not fulfilled.

Consider the worked cases shown below.
input.smiles: CCCCCCCCCCCCCCCCCCNC(=O)CN(NC(=O)CCCCCCC)C(=O)CN.Cl
assigned.category: Not fulfilled
--
input.smiles: CCCCCCCCCCCCNC(=O)CN(NC(=O)OCc1ccccc1)C(=O)CN.Cl
assigned.category: Fulfilled
--
input.smiles: CCCCCCCCCCCCCCCCCCNC(=O)CN(NC(=O)OCc1ccccc1)C(=O)CN.Cl
assigned.category: Not fulfilled
--
input.smiles: CCCCCCCCCCCCCCCCCC(=O)NN(CC(=O)NCCCCCCCC)C(=O)CN.Cl
assigned.category: Not fulfilled
--
input.smiles: CCCCCCCCCCCCNC(=O)CN(NC(=O)c1ccccc1)C(=O)CN.Cl
assigned.category: Fulfilled
--
input.smiles: CCCCCCCCNC(=O)CN(NC(=O)c1ccccc1)C(=O)CN.Cl
assigned.category: Not fulfilled
--
input.smiles: CCCCCCCCNC(=O)CN(NC(=O)CCCCCCC)C(=O)CN.Cl
assigned.category: Fulfilled
--
input.smiles: CCCCCCCCNC(=O)CN(NC(C)=O)C(=O)CN.Cl
assigned.category: Not fulfilled
--
input.smiles: CCCCCCCCNC(=O)CN(C(=O)CN)N(C)C(C)=O
assigned.category: Not fulfilled
--
input.smiles: CCCCCCCCCCCCNC(=O)CN(C(=O)CN)N(C)C(C)=O
assigned.category: Fulfilled

Consider now this further compound.
Request: # strict comparison: is reported MIC < 60 µg/mL? input = CCCCCCCCCCCCNC(=O)CN(NC(C)=O)C(=O)CN.Cl
Result: Fulfilled
